Taken from paper PMC7819943.

target.or.system: OsWOX13 (Oryza sativa, UniProt Q5QMM3 1-267)
Sequence: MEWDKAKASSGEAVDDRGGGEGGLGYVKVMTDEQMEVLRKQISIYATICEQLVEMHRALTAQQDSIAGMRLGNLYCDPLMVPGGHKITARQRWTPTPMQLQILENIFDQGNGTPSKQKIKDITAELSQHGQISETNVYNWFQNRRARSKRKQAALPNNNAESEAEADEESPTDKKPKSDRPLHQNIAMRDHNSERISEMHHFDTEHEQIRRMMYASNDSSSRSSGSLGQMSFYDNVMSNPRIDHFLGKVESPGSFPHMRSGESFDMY
experiment.notes: protein-binding microarray (RPBM); PBS, 2% BSA, 51.3 ng/ul salmon testes DNA, 50 uM zinc acetate, 200 nM TF, 25 C, 1 h; high values mean tight binding
applied.conditions: protein: recombinant; tags: N-terminal polyhistidine and DsRed monomer fusion (pET32a); label: CyDye5-dUTP incorporated in the synthesized complementary strand; 3' TTTTT single-stranded linker to array surface; dsDNA, one strand shown
Whole data set: some 35,000 sequences, median “fluorescence intensity (a.u.)” near 10,000, cut for the highest 2% near 52,000. The sample holds the highest values, similar sequences and a random draw of the others, so the mix is not that of the screen.
metric.name: binding signal

| seq.string | target.or.system | value.measured |
| --- | --- | --- |
| TAAGTTTTAATTGAAATTTTGTTCACAAATACTCCAAATCCGGAGTCACCTAGTGCAG | OsWOX13 (Oryza sativa, UniProt Q5QMM3 1-267) | 11900 fluorescence intensity (a.u.) |

Parameter requested: binding signal. Apply to each item below.
1. ATATAATAGCTAATCAAACACTAGTCCGAAGACGTAGTATCGGAGTCACCTAGTGCAG
2. CCTTGCAATCATTCATCAGAGGAGGAGTTCTACAGTGATGCGGAGTCACCTAGTGCAG
3. AAAAGCAGGTTTACTTACGCCTCATGTTCTCACACTAATTCGGAGTCACCTAGTGCAG
4. TTGATACTCTGATGATTGTAAAGTAAATTGTTTGAAATTTCGGAGTCACCTAGTGCAG
5. AATGTCTGCAATTAATCAATCTGTTAATCTGTTATTAGTACGGAGTCACCTAGTGCAG

Out:
1. 21700 fluorescence intensity (a.u.)
2. 3760 fluorescence intensity (a.u.)
3. 24400 fluorescence intensity (a.u.)
4. 9650 fluorescence intensity (a.u.)
5. 21900 fluorescence intensity (a.u.)

Parameter requested: binding signal. Apply to each item below.
1. AGTACAAATGACGGATTAATTAGGCTTAATAAATTCGTCTCGGAGTCACCTAGTGCAG
2. TTTCTTAATTGTATTTCTATATGGACTTGATACCCTTCTTCGGAGTCACCTAGTGCAG
3. CTAAAATTGGAGACGTCACTACAAACGTACGCACTCTTTGCGGAGTCACCTAGTGCAG
4. TGGACATTGACAAAATCACAGATCCAGTAAGTACTAGTATCGGAGTCACCTAGTGCAG
5. TTGATTGATTTGTTTGCACTCCATGAAATAAGTGAGGGCTCGGAGTCACCTAGTGCAG
6. AATGACTGATTAATTAGGCTTAATAAATTCATCTCGCAGTCGGAGTCACCTAGTGCAG

Out:
["19200 fluorescence intensity (a.u.)", "18900 fluorescence intensity (a.u.)", "6760 fluorescence intensity (a.u.)", "3170 fluorescence intensity (a.u.)", "65200 fluorescence intensity (a.u.)", "59600 fluorescence intensity (a.u.)"]

Parameter requested: binding signal. Apply to each item below.
1. TGGCTTAATTTAATCCCCTCCATTCCGGATGCCTCTCCCTCGGAGTCACCTAGTGCAG
2. GGAGGGAGTAGAATAATGATTGATTTAAGTTAATACTAGCCGGAGTCACCTAGTGCAG
3. TTTATAACATTGTTAATTGATTAGGCATGCAATGCCATATCGGAGTCACCTAGTGCAG

Out:
1: 20200 fluorescence intensity (a.u.); 2: 23500 fluorescence intensity (a.u.); 3: 32300 fluorescence intensity (a.u.)

Parameter requested: binding signal. Apply to each item below.
1. AATAACTGATAAAAGATATATGATTTTGGAGAAATGTGTGCGGAGTCACCTAGTGCAG
2. TCAGATTAGTTGACTAGCAAGCTACTCCTAGTACAGGTTACGGAGTCACCTAGTGCAG

Out:
["26100 fluorescence intensity (a.u.)", "6290 fluorescence intensity (a.u.)"]

Parameter requested: binding signal. Apply to each item below.
1. TGTTGATTATAATTAAACACAACAAACAGACTCGAAGCAACGGAGTCACCTAGTGCAG
2. TGTGAAAATGGATAATTAAGGGATCCCAAAGACCCATAAGCGGAGTCACCTAGTGCAG
3. AACTAATTGTTTCTTCAGACTTCTTCAGAGCATTCTCCAGCGGAGTCACCTAGTGCAG

Out:
48200 fluorescence intensity (a.u.)
10800 fluorescence intensity (a.u.)
36800 fluorescence intensity (a.u.)

Parameter requested: binding signal. Apply to each item below.
1. AACTTATTCCAATTATCAAACTCCGCTGCTCAACCAGGCCCGGAGTCACCTAGTGCAG
2. TCGCTTAATTAATTTGGATTTGGATGCGGATCCCTCGCCTCGGAGTCACCTAGTGCAG
3. AGGGAAAGTTGTGATTGAGGGAGGATGTTAGATAATGTTACGGAGTCACCTAGTGCAG
4. TTTGATTTATATGCCATTGCCTTTGCTGAACAGAAAAGCTCGGAGTCACCTAGTGCAG
5. ATCAATAATTGAACATATTTTCATAATAAATTTGTCTTGGCGGAGTCACCTAGTGCAG
6. TTTACAAACACGCAAATTAAAATTTTATTTATACAATTAACGGAGTCACCTAGTGCAG
7. GGTCCTAATTGACAAATCCACAGAAGTAGTACTCCAGGAGCGGAGTCACCTAGTGCAG

Out:
["5860 fluorescence intensity (a.u.)", "56000 fluorescence intensity (a.u.)", "10100 fluorescence intensity (a.u.)", "37600 fluorescence intensity (a.u.)", "42100 fluorescence intensity (a.u.)", "4180 fluorescence intensity (a.u.)", "53000 fluorescence intensity (a.u.)"]

Parameter requested: binding signal. Apply to each item below.
1. CACCAATCAGGGTTCCAAGTAGAAGAGGTGGGCAGAGAGCCGGAGTCACCTAGTGCAG
2. ATAATTATTCTGTTAATTAATCAATTATTATCTGGGAATCCGGAGTCACCTAGTGCAG

Out:
6870 fluorescence intensity (a.u.)
63600 fluorescence intensity (a.u.)
